target: Mutant EZH2 (Y641F) (Homo sapiens, UniProt Q15910, Y641F); experiment: AlphaLISA assay on mutant PRC2 complex, EZH2 Y641F
Sequence (Q15910 whole entry Y641F): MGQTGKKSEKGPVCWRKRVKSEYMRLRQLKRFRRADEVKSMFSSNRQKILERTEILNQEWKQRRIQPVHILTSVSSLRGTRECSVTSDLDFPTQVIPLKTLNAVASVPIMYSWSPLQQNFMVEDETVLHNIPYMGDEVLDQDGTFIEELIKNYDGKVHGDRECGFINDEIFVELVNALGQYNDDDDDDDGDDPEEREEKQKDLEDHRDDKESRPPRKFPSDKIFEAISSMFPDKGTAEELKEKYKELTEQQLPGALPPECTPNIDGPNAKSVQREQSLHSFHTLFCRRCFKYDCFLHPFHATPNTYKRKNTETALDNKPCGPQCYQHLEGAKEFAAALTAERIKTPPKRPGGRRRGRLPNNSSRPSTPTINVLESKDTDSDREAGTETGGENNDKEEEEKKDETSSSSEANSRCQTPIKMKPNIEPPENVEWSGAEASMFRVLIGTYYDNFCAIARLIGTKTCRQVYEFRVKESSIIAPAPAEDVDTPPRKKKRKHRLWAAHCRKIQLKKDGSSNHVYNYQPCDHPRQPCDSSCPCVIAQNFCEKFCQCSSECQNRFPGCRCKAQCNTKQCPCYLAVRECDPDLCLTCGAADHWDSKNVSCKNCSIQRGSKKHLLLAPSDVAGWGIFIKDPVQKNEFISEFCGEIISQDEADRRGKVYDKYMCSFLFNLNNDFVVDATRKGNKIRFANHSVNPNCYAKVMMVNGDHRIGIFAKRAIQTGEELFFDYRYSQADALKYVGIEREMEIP
Sequence (O75530 whole entry partner): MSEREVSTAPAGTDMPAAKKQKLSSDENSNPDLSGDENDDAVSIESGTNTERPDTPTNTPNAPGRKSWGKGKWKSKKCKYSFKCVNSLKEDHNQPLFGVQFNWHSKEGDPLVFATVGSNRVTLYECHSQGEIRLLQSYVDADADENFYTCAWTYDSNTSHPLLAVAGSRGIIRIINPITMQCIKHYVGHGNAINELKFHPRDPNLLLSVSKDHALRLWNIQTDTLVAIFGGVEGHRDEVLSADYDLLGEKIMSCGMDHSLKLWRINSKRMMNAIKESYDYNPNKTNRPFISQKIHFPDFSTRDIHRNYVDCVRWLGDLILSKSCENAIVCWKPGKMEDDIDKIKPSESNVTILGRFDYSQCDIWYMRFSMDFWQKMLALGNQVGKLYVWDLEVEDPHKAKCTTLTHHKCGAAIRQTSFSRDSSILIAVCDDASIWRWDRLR
Sequence (Q15022 whole entry partner): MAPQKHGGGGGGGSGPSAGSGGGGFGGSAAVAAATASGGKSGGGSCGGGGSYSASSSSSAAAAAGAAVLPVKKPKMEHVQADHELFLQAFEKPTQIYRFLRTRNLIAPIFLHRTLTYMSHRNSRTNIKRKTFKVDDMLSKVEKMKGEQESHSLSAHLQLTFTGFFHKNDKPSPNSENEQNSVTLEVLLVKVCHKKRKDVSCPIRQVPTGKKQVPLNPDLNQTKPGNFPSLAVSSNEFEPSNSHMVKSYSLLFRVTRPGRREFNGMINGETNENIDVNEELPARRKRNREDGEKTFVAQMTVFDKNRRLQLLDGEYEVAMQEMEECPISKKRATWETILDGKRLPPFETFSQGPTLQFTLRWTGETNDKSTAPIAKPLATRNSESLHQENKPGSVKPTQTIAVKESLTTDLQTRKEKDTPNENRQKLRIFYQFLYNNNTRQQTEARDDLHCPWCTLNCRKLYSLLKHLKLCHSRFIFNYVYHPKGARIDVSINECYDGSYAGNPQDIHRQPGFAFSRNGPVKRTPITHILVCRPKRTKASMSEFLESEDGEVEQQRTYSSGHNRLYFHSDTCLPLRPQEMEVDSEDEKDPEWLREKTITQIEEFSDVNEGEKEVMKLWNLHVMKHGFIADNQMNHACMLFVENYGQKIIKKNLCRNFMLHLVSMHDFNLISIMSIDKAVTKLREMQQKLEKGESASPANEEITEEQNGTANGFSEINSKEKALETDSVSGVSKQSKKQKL
Sequence (Q09028 whole entry partner): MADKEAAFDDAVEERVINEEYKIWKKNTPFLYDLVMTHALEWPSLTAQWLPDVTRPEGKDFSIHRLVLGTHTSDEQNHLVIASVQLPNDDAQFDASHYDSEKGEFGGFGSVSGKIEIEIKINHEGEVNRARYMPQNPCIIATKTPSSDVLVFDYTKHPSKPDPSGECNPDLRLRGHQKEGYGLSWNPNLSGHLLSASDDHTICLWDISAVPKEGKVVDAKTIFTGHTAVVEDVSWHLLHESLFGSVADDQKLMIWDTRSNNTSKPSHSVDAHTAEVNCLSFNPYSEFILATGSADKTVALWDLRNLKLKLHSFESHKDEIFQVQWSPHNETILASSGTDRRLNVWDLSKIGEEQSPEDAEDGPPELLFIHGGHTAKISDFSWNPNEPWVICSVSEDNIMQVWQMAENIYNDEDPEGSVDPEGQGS
Sequence (Q6ZN18 whole entry partner): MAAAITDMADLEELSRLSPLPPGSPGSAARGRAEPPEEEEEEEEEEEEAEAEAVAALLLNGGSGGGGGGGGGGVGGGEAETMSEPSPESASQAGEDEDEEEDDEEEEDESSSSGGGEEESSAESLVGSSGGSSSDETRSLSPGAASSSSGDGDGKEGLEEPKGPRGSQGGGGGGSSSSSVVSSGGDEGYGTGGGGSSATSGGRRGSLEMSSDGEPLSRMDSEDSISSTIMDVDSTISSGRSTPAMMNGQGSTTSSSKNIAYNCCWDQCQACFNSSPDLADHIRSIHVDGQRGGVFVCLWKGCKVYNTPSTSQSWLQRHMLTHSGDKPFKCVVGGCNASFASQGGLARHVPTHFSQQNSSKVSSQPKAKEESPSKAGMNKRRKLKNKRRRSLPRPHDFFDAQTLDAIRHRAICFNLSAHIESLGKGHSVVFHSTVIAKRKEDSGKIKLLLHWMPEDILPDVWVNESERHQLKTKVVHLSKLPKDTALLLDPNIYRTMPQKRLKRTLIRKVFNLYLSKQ
endpoint.label: IC50 (nM)
Give just the number in nM; leave the unit off.

molecule=CCN(c1cc(N2Cc3ccccc3C2)cc(C(=O)NCc2c(C)cc(C)[nH]c2=O)c1C)C1CCOCC1 units_text=nM assay_value=0.78

IN: Consider the molecule shown here: CCN(c1cc(-c2ccc3c(c2)CCC3N2CCOCC2)cc(C(=O)NCc2c(C)cc(C)[nH]c2=O)c1C)C1CC(C)OC(C)C1 (stereo not drawn) What is its recorded IC50?
OUT: 0.81

IN: Consider the molecule shown here: CCN(c1cc(-c2ccc3c(c2)CCC3N2CCOCC2)c(Cl)c(C(=O)NCc2c(C)cc(C)[nH]c2=O)c1C)C1CCOCC1 (stereo not drawn) What is its recorded IC50?
OUT: 0.58
